- experimental system: SALL4 ZFC4 G921D (HT-SELEX) (Mus musculus, UniProt Q8BX22 870-940, G921D)
- Sequence: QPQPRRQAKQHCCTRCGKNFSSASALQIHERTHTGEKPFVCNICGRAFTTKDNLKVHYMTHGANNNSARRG
- test method notes: HT-SELEX; high values mean tight binding
- condition label: protein: recombinant; vector His6-GST; dsDNA, one strand shown
Listed here are sequences together with their documented binding signal.
// note: answer is a bare numeric in fold-change vs cycle 0

Please review the entries below; each comes with its answer.
macromolecule sequence | units text | result value
CGATCC | fold-change vs cycle 0 | 0.584
AGTGCC | fold-change vs cycle 0 | 0.444
GAAGAC | fold-change vs cycle 0 | 0.993
CCGCGA | fold-change vs cycle 0 | 0.221

binding signal lookup needed for AAAAAG , thanks. 1.52

Given CACACC , state its recorded binding signal. 0.561

Reported binding signal, sequence AAGAGC : ____ 1.02

Which value of binding signal has been reported for GCGCTA in the records? 0.291

Which binding signal is listed for AGGGCG ? 0.26

I have this sequence here, CGAGTA , and I need its recorded binding signal. 0.87

I'd like to know its binding signal. The sequence in question is CGGAGC 0.286

// returns reported binding signal for input CCCTAG 0.667

Any idea what binding signal was measured for CCATCG ? 0.557

Name the recorded binding signal for CCGGCA . 0.221

Please report the recorded binding signal for CTGACC . 0.621

Would you kindly share the measured binding signal for GCCAGC ? 0.211

Which binding signal reading was recorded for the sequence AACCTG ? 0.952

May I ask what binding signal has been recorded for AGAGTC ? 0.995

Any idea what its binding signal is? The sequence is AGGGTG 0.648

What measured binding signal goes with TATCAA ? 1.87

Suppose we examine the sequence CAGCCC ; what binding signal value has been reported? 0.287

What does the data say about its binding signal? Entry: ACAAGA 1.39

# get_value(readout='binding signal', item= CTTCGA ) 0.875

Entry CGAGGA : reported binding signal = ? 0.587

----------
- experimental system: SALL4 ZFC4 G921D (HT-SELEX) (Mus musculus, UniProt Q8BX22 870-940, G921D)
- Sequence: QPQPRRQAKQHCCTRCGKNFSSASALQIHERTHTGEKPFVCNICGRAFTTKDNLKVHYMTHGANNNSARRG
- test method notes: HT-SELEX; high values mean tight binding
- condition label: protein: recombinant; vector His6-GST; dsDNA, one strand shown
As shown below, each of these sequences has a reported log10(binding signal) value.
Transform log10 | Measure binding signal | Unit fold-change vs cycle 0

Some solved entries appear below for comparison.
macromolecule sequence | result value
CGACCG | -0.58
GTCCGA | -0.30
ACAGAC | -0.06
AAATTG | 0.17
GCCCTA | -0.30
CTGATC | 0.01
TCGGAA | -0.06
GCTTAC | -0.04
CATACG | -0.07
TGCACA | -0.16

Could you share which log10(binding signal) value was measured for ACACGC ? -0.37

----------
- experimental system: SALL4 ZFC4 G921D (HT-SELEX) (Mus musculus, UniProt Q8BX22 870-940, G921D)
- Sequence: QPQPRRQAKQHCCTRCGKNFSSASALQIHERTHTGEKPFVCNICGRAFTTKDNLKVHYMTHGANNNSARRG
- test method notes: HT-SELEX; high values mean tight binding
- condition label: protein: recombinant; vector His6-GST; dsDNA, one strand shown
This section presents sequences with their documented binding signal values.
Respond with the bare value in fold-change vs cycle 0.

macromolecule sequence | experimental system | result value
CATCAC | SALL4 ZFC4 G921D (HT-SELEX) (Mus musculus, UniProt Q8BX22 870-940, G921D) | 1.03

Look at this sequence and give its reported binding signal. CGGCGA 0.177

What measured binding signal goes with GCTCCC ? 0.357

Give the measured binding signal of ATCCTG . 1.02

----------
- experimental system: SALL4 ZFC4 R900W (HT-SELEX) (Mus musculus, UniProt Q8BX22 870-940, R900W)
- Sequence: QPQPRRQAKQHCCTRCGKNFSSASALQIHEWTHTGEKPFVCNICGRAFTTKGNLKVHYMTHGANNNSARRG
- test method notes: HT-SELEX; high values mean tight binding
- condition label: protein: recombinant; vector His6-GST; dsDNA, one strand shown
Below, each entry is listed with its recorded log10 binding signal.
Note: values are log10 of binding signal expressed in fold-change vs cycle 0.

// solved cases for log10 binding signal follow
macromolecule sequence | log10 binding signal
CGTACG | -0.41
TCGGCA | -0.68
CCGCCC | -1.18

What log10 binding signal value was documented for this sequence, AGGTAG ? -0.01

# log10 binding signal lookup, item ACGATA 0.11

Would you mind telling me what log10 binding signal value was observed for CGACGC ? -1.04

I am curious: what log10 binding signal value has been reported for ACATGA ? 0.17

// log10 binding signal lookup, key: ACCCGA -0.34

Which log10 binding signal reading was recorded for the sequence CGCGAG ? -0.87

Find the recorded log10 binding signal belonging to GTTGGA and report it. -0.08

----------
- experimental system: SALL4 ZFC4 G921D (HT-SELEX) (Mus musculus, UniProt Q8BX22 870-940, G921D)
- Sequence: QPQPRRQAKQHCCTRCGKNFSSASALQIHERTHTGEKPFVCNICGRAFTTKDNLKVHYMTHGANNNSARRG
- test method notes: HT-SELEX; high values mean tight binding
- condition label: protein: recombinant; vector His6-GST; dsDNA, one strand shown
measured attribute: binding signal (fold-change vs cycle 0)
Quick reminder: number only, in fold-change vs cycle 0, skip the unit.

Any idea what binding signal came out for GGGGAA on SALL4 ZFC4 G921D (HT-SELEX) (Mus musculus, UniProt Q8BX22 870-940, G921D)? 0.614

Query for SALL4 ZFC4 G921D (HT-SELEX) (Mus musculus, UniProt Q8BX22 870-940, G921D): what binding signal does the record show for GTTAAA ? 1.61

Request - read-out binding signal | tested on SALL4 ZFC4 G921D (HT-SELEX) (Mus musculus, UniProt Q8BX22 870-940, G921D) | sequence GCAACC 0.503

What value of binding signal on SALL4 ZFC4 G921D (HT-SELEX) (Mus musculus, UniProt Q8BX22 870-940, G921D) does ATACAA have? 1.76

Please state recorded binding signal (tested on SALL4 ZFC4 G921D (HT-SELEX) (Mus musculus, UniProt Q8BX22 870-940, G921D)) of AGTAAC 1.49

Write down the reported binding signal of CCTGAC , test system: SALL4 ZFC4 G921D (HT-SELEX) (Mus musculus, UniProt Q8BX22 870-940, G921D). 0.654

----------
- experimental system: SALL4 ZFC4 WT (HT-SELEX) (Mus musculus, UniProt Q8BX22 870-940)
- Sequence: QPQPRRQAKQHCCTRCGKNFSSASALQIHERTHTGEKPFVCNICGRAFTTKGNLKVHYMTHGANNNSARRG
- test method notes: HT-SELEX; high values mean tight binding
- condition label: protein: recombinant; vector His6-GST; dsDNA, one strand shown
Here, each record is paired with measured binding signal data.
Value expressed in fold-change vs cycle 0; do not type the unit.

Before answering, review these 5 worked examples.
macromolecule sequence | binding signal / fold-change vs cycle 0
ATTCGG | 0.592
CCAAAC | 0.632
CGTATA | 1.19
ACGGTG | 0.355
ATAGTA | 2.1

Report binding signal for CCTCAG please. 0.494

Quick check: binding signal of CAGTAC ? 0.772

Which measured binding signal value corresponds to AGAACA ? 1.26

Fill blank: measured binding signal of the sequence GGCTTA is ____. 0.557

Reported binding signal for CCGTCA : what is it? 0.358

----------
- experimental system: SALL4 ZFC4 G921D (HT-SELEX) (Mus musculus, UniProt Q8BX22 870-940, G921D)
- Sequence: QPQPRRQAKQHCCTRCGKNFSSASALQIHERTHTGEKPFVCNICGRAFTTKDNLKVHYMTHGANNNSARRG
- test method notes: HT-SELEX; high values mean tight binding
- condition label: protein: recombinant; vector His6-GST; dsDNA, one strand shown
measured attribute: binding signal
Express your answer as a number followed by its unit.

Solved entries:
macromolecule sequence | binding signal
ACTGCA | 0.797 fold-change vs cycle 0
ATTTAC | 1.69 fold-change vs cycle 0
GTTTGA | 1.23 fold-change vs cycle 0
AATAAG | 1.86 fold-change vs cycle 0
CAAGAA | 1.35 fold-change vs cycle 0
GCCACA | 0.391 fold-change vs cycle 0

State the recorded binding signal for this entry: TCAGCA 0.841 fold-change vs cycle 0

Recorded binding signal for CACATG , please? 0.925 fold-change vs cycle 0

I would be grateful if you could share the reported binding signal for GACAAC . 0.89 fold-change vs cycle 0

Please look up its binding signal: CGTGAA 0.834 fold-change vs cycle 0

Field request: binding signal | item: GCATCC 0.551 fold-change vs cycle 0

Look at this sequence and give its reported binding signal. ATAACC 1.38 fold-change vs cycle 0

# binding signal lookup, item GACTAC 0.967 fold-change vs cycle 0

Sample GAGAGC — what was its binding signal? 0.588 fold-change vs cycle 0

The reported numbers originate from paper PMC9838217.
